Provide the recorded pIC50 for the entries that follow.
Biological target: JAK3 enzyme (Homo sapiens (Human), UniProt P52333)
Sequence (P52333 whole entry, species assumed): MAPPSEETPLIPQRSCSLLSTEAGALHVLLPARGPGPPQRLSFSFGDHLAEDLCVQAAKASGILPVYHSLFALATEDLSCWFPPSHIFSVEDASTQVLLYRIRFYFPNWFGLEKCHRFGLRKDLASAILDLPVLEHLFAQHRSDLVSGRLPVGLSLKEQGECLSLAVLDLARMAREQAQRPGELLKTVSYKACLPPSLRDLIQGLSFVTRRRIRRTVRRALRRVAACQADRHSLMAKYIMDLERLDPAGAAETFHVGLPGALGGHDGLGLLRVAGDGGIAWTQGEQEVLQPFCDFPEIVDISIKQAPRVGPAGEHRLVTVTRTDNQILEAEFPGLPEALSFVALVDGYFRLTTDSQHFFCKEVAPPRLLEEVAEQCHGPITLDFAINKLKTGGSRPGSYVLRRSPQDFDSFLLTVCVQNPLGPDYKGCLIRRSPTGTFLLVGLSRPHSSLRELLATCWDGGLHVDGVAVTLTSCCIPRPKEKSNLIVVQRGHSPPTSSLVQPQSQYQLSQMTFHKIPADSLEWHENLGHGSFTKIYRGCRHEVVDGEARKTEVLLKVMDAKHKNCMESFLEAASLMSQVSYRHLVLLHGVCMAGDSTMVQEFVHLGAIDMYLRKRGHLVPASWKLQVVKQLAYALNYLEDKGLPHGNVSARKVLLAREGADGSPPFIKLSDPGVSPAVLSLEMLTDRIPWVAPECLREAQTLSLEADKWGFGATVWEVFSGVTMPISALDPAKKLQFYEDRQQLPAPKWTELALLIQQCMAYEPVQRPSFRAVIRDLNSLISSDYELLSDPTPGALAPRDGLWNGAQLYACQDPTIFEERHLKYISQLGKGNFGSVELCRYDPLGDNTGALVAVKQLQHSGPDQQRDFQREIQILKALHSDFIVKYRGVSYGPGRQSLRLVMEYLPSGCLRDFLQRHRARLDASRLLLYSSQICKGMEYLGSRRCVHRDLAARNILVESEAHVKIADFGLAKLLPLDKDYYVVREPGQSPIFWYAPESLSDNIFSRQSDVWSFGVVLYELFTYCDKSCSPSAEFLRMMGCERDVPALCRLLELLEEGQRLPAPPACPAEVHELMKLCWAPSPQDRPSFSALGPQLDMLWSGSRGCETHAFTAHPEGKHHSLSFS
Assay: JAK Caliper Enzyme Assay at 4 μM or 1 mM ATP
Format: biochemical
Settings: read-out: JAK3 (4 μM ATP) IC50; 4 μM ATP
Experimental: JAK Caliper Enzyme Assay at […] or 1 mM ATP Test article was solubilized in dimethyl sulfoxide (DMSO) to a stock concentration of 30 mM. An 11-point half log dilution series was created in DMSO with a top concentration of 600 μM. […] The compound plates were diluted 1 to 60 resulting in a top final assay compound concentration of 10 μM and a 2% DMSO concentration. Test article and assay controls were added to a 384-well plate. […]
Numbers only, as −log10 of the molar value.

Solved entries (count: 5):
## Input // fetch pIC50 given entry C=CC(=O)N[C@H]1C[C@H](Nc2cnc3[nH]cc(C(=O)NC(C)C)c3n2)C1 [Example 198]
## Output 9.00

## Input Input C=CC(=O)N1CCC(Nc2cnc3[nH]cc(-c4ccnc(C)c4)c3n2)CC1 [Example 201] , output reported pIC50.
## Output 9.30

## Input Output pIC50 of C=CC(=O)N1CCC(Nc2cnc3[nH]cc(C(=O)NCC(F)(F)F)c3n2)CC1 [Example 273]
## Output 9.40

## Input Specify pIC50 for O=C(/C=C/CF)N1CC[C@@H]2CCN(c3ncnc4[nH]ccc34)[C@@H]2C1 [Example 87] and stop.
## Output 6.86

## Input Give pIC50 for C#Cc1c[nH]c2ncnc(N3CC[C@H]4CCN(C(=O)C=C)C[C@H]43)c12 [Example 48]
## Output 9.10

Quick batch: pIC50 for everything below.
1. C=CC(=O)N1CCC[C@@H](Nc2ncnc3[nH]cc(-c4cnn(C)c4)c23)C1 [Example 28]
2. C=CC(=O)N1CCC(Oc2cnc3[nH]cc(-c4ccnc(F)c4)c3n2)CC1 [Example 222]
3. C=CC(=O)N1CCC[C@@H](Nc2ncnc3[nH]cc(Cc4ccc(O)cc4)c23)C1 [Example 137]
4. C=CC(=O)N1CCC(Nc2cnc3[nH]cc(C(=O)NCC4CC(F)(F)C4)c3n2)CC1 [Example 238]
5. C/C=C/C(=O)N1CCC[C@@H](Nc2ncnc3[nH]cc(C(=O)NCCO)c23)C1 [Example 148]
6. C=CC(=O)NC1CN(c2cnc3[nH]cc(C(=O)NC(C)C)c3n2)C1 [Example 173]

## Output
1: 7.32; 2: 8.96; 3: 9.52; 4: 9.70; 5: 5.16; 6: 8.09

Could you tell me pIC50 for each of these compounds? They are listed below.
1. C=CC(=O)N1CCC(Nc2cnc3[nH]cc(C(=O)N[C@@H](C)COC)c3n2)CC1 [Example 277]
2. C=CC(=O)N1CC(Nc2cnc3[nH]cc(C(=O)NC(C)C)c3n2)C1 [Example 188]
3. C=CC(=O)N1CC2CCN(c3cnc4[nH]cc(C(=O)NC(C)C)c4n3)C2C1 (stereo not shown) [Example 178]
4. C/C=C/C(=O)N1CCC[C@@H](Nc2ncnc3[nH]ccc23)C1 [Example 105]
5. C=CC(=O)N1C[C@@H](F)C[C@@H](Nc2ncnc3[nH]ccc23)C1 [Example 15]
6. C=CC(=O)N1CCC[C@@H](Nc2ncnc3[nH]cc(-c4cncc(F)c4)c23)C1 [Example 23]
7. C=CC(=O)N1CCC[C@@H](Nc2ncnc3[nH]ccc23)C1 [Example 12]

## Output
9.52
9.52
8.96
5.61
9.05
8.89
9.15

List reported pIC50 for each of these compounds:
1. C=CC(=O)N1Cc2ncn(C)c2C(Nc2ncnc3[nH]ccc23)C1 (stereo not shown) [Example 166]
2. C=CC(=O)N1CC[C@H](Nc2cnc3[nH]cc(C(=O)NC(C)C)c3n2)C1 [Example 171]
3. C=CC(=O)N1CCC(Oc2cnc3[nH]cc(-c4cncnc4)c3n2)CC1 [Example 215]
4. C=CC(=O)N1CCC(Nc2cnc3[nH]cc(C(=O)NC4CCCCC4)c3n2)CC1 [Example 278]
5. C=CC(=O)N1CCC[C@@H](Nc2ncnc3[nH]cc(C(=O)NCC)c23)C1 [Example 144]
6. C=CC(=O)N1C[C@H](Nc2ncnc3[nH]ccc23)CC[C@H]1CC [Example 124]
7. C=CC(=O)N1CCC(Nc2cnc3[nH]cc(C(=O)NC4CCCC4)c3n2)CC1 [Example 283]
8. C=CC(=O)NC1CCN(c2cnc3[nH]ccc3n2)C1 (stereo not shown) [Example 167]

## Output
6.43
9.40
8.54
9.70
6.86
6.58
9.52
5.62

For each of the compounds below, note its pIC50.
1. C=CC(=O)N1CCC[C@@H](Nc2ncnc3[nH]cc(F)c23)C1 [Example 42]
2. C=CC(=O)N1CCC(CNc2cnc3[nH]cc(C(=O)NC(C)C)c3n2)CC1 [Example 193]
3. C=CC(=O)N1C[C@H](Nc2ncnc3[nH]cc(CCOC)c23)CC[C@@H]1C [Example 13]
4. C=CC(=O)N1CC[C@@]2(C)CCN(c3ncnc4[nH]ccc34)[C@H]2C1 [Example 122]
5. C=CC(=O)N1CCN(c2cnc3[nH]cc(C(=O)NC(C)C)c3n2)CC1 [Example 174]

## Output
9.05
7.54
9.40
7.12
9.40

====

target: JAK3 enzyme (Homo sapiens (Human)); assay: JAK Caliper Enzyme Assay at 4 μM or 1 mM ATP; format: biochemical; settings: read-out: JAK3 (4 μM ATP) IC50; 4 μM ATP
Provide the reported pIC50 of each item.
One number for each entry, as −log10 of the molar value.

Example entries and their recorded answers appear below.
## Input Tell me measured pIC50 for COC(=O)C/C=C/C(=O)N1CCC[C@@H](Nc2ncnc3[nH]ccc23)C1 [Example 97] please.
## Output 6.04

## Input Please supply the value of reported pIC50 for the item C=CC(=O)N[C@H]1CC[C@@H](Nc2cnc3[nH]cc(C(=O)NC(C)C)c3n2)CC1 [Example 182]
## Output 7.94

## Input Quickly give me recorded pIC50 for C=CC(=O)N1CC[C@@H](Nc2cnc3[nH]cc(C(=O)NC(C)C)c3n2)[C@@H](OC)C1 [Example 302]
## Output 8.92

## Input Quick one: give measured pIC50 for C=CC(=O)N1CCC(Oc2cnc3[nH]cc(-c4cccnc4F)c3n2)CC1 [Example 217]
## Output 9.15

## Input Answer with the recorded pIC50 for the compound listed here: C=CC(=O)N1CCC(Nc2cnc3[nH]cc(C(=O)NCC4(O)CCC(F)(F)CC4)c3n2)CC1 [Example 252b]
## Output 9.30

## Input Answer with the recorded pIC50 of C=CC(=O)N1CCC(Nc2cnc3[nH]cc(C(=O)N(C)C(C)C)c3n2)CC1 [Example 279] only.
## Output 8.01

Hi, could you look up pIC50 for each item in my list?
1. C=CC(=O)N1C[C@@H]2C(Nc3cnc4[nH]cc(C(=O)NC(C)C)c4n3)[C@@H]2C1 (some centres unmarked) [Example 189]
2. C=CC(=O)N1CCC[C@@H](Nc2ncnc3[nH]cc(-c4cncc(OC)c4)c23)C1 [Example 24]
3. C#CCNC(=O)c1c[nH]c2ncc(NC3CCN(C(=O)C=C)CC3)nc12 [Example 343]
4. C=CC(=O)N1CCN(c2cnc3[nH]cc(C(=O)NC(C)C)c3n2)[C@H](C2CC2)C1 [Example 309]
5. C=CC(=O)N1CC[C@@H](F)[C@@H](Nc2ncnc3[nH]ccc23)C1 [Example 54]
6. C=C(COC)C(=O)N1CCC[C@@H](Nc2ncnc3[nH]ccc23)C1 [Example 94]

## Output
1: 8.96; 2: 8.92; 3: 10.00; 4: 8.18; 5: 8.77; 6: 6.10

====

molecular target: JAK3 enzyme (Homo sapiens (Human), UniProt P52333); assay: JAK Caliper Enzyme Assay at 4 μM or 1 mM ATP; assay type: biochemical; conditions: read-out: JAK3 (4 μM ATP) IC50; 4 μM ATP
pIC50: −log10 of the molar value.
Note to self: values exactly at 9 are rule met. So pIC50 at or above 9 is rule met, below is rule not met.

Past entries and their recorded results:
## Input Can C/C=C/C(=O)N1CCC[C@@H](Nc2ncnc3[nH]cc(CCOC)c23)C1 be said to have pIC50 at or above 9?
## Output rule not met

## Input Determine whether this compound has pIC50 no lower than 9: C=CC(=O)N1C[C@H](Nc2ncnc3[nH]ccc23)CC[C@@H]1CC (single isomer, unassigned)
## Output rule met

## Input Decide: pIC50 of C=CC(=O)N1CC[C@@H](Nc2cnc3[nH]cc(C(=O)NC(C)C)c3n2)[C@@H](F)C1 >= 9?
## Output rule met

---
## Input Identify whether the reported pIC50 of the following compound is 9 or greater: C=CC(=O)N1CCC(Nc2cnc3[nH]cc(C(=O)NCC(C)(F)F)c3n2)CC1
## Output rule met

## Input Does pIC50 meet or surpass 9 for C=CC(=O)N1CCC(Oc2cnc3[nH]cc(-c4ccc(C)nc4)c3n2)CC1 ?
## Output rule not met
